Measured Kd accompanies every entry in the list below.
# measurement.target: T1, hGARP-proTGFβ1 (human, UniProt Q14392 18-627; P01137 30-390, limits assumed)
# T1 construct: LLC as m1; Same id used for the cell-surface complex in reporter assays; also called human GARP-proTGFβ1 complex; GARP-ProTGFb1
# T1 sequence (Q14392 18-627 limits assumed, chain 1 of 2): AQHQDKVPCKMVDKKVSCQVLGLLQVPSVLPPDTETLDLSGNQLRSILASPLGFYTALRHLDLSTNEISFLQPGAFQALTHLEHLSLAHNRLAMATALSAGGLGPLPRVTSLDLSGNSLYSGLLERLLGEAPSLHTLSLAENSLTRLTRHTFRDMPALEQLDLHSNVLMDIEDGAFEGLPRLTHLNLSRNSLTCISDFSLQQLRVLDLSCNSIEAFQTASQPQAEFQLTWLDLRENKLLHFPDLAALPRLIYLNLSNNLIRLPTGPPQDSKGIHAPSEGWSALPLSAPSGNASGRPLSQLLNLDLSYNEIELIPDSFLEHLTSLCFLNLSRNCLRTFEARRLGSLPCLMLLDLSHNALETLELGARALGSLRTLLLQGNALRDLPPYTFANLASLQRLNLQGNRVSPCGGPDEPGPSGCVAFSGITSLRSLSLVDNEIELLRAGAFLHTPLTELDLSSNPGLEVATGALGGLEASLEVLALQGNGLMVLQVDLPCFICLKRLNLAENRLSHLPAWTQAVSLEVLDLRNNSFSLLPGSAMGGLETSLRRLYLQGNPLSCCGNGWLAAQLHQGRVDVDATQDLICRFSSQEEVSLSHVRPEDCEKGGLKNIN
# T1 sequence (P01137 30-390 limits assumed, chain 2 of 2): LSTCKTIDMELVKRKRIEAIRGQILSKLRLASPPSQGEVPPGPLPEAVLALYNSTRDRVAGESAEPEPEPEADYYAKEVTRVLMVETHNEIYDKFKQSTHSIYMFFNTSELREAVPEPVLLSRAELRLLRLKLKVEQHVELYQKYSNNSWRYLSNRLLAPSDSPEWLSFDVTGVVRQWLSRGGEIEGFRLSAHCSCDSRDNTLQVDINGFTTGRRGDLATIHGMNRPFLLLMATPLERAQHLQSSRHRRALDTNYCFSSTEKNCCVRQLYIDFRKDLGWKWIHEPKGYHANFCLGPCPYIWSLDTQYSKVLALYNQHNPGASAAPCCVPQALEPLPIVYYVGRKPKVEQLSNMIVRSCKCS
# procedure.text: BLI (Octet)
property.label: Kd (nM)

binder: Ab25 (antibody, V domains shown) VH: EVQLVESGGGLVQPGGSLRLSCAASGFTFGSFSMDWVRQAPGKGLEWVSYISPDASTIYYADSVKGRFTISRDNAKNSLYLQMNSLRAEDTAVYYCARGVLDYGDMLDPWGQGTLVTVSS VL: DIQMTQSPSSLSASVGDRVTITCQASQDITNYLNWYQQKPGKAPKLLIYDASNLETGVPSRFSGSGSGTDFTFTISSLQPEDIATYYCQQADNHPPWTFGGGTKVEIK
readout.units: nM
value.reported: 0.488
--
binder: Ab22 (antibody, V domains shown) VH: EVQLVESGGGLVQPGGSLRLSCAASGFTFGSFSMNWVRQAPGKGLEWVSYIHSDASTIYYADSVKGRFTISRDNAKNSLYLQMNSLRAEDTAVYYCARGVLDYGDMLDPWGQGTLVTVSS VL: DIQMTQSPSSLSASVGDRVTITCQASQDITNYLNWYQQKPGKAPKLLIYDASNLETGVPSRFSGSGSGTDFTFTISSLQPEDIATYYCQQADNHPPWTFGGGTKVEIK
readout.units: nM
value.reported: 0.974
--
binder: Ab28 (antibody, V domains shown) VH: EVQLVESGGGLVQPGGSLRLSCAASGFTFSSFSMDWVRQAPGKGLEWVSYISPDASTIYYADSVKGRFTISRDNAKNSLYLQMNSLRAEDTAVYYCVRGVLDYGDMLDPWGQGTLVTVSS VL: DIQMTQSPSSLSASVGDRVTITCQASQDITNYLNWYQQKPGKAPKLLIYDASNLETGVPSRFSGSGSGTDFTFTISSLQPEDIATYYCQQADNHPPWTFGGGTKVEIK
readout.units: nM
value.reported: 0.797

Where do these numbers come from? They come from patent US20240294623A1.
